The reported measurements were obtained from patent US20120231006A1.

- system.tested: T1, mOrai1-hOrai1 ECL2 (…) protein (human/mouse chimera, UniProt Q8BWG9 1-304 (mouse entry))
- T1 construct: also called Ch
- assay.details: FACS, 293EBNA
- Set-up: concentration or dose not given beside the values
POC (percent of control, FACS Geo Mean relative to binding to Ch. 1) values for the binders below.
readout.name: POC (percent of control, FACS Geo Mean relative to binding to Ch. 1)

binder	meas.value
mAb 5B1.1 (antibody, human IgG2, lambda, V domains shown, fully human IgG2 lambda, Campaign 2; also called mAb 5Bl1.1) VH: QVQLVQSGAEVKKPGASVKVSCKASGYTFTDYYINWVRQAPGQGLEWMGWINPNSGGSSYAQKFQGRVTMTRDTSISTAHMELIRLRSDDTAVYYCARERGGIEDWFDPWGQGTLVTVSS VL: QSVLTQPPSVSGAPGQRVTISCTGSSSNIGAGYDVHWYQQLPGTAPKLLIYGNSNRPSGVPDRFSGSKSGTSASLAITKFQAEDEAVYYCQSYGSGLSGVVFGGGTKLTVLG	< 1%
mAb 5C1.1 (antibody, human IgG2, lambda, V domains shown, fully human IgG2 lambda, Campaign 2) VH: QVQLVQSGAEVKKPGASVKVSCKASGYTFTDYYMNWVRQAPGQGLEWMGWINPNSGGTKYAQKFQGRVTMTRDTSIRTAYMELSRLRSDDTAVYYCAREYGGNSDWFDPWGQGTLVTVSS VL: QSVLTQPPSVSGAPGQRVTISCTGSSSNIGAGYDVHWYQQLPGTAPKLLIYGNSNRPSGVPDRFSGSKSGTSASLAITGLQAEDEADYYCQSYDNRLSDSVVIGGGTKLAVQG	< 1%
mAb 5B5.2 (antibody, human IgG2, lambda, V domains shown, fully human IgG2 lambda, Campaign 2; same chains as 5B5.1) VH: QVQLVQSGAEVKKPGASVKVSCKASGYTFTDYYINWVRQAPGQGLEWMGWINPNSGGTDYAQKFQGRVTMTRDTSIRTAYMELNRLTSDDTAVYYCAREYGGYEDWFDPWGQGTLVTVSS VL: QSVLTQPPSVSGAPGQRVTISCTGSNSNIGAGFDVHWYQQLPGTVPKLLIYGNNNRPSGVPDRFSGSKSGTSASLAITGLQAEDEADYYCQSYDSRLTVFGGGTKLTVLG	< 1%
